pKi: −log10 of the molar value.
# merged literature set: pKi with Apoptosis regulator Bcl-2 (Homo sapiens)
# Sequence (P10415 whole entry): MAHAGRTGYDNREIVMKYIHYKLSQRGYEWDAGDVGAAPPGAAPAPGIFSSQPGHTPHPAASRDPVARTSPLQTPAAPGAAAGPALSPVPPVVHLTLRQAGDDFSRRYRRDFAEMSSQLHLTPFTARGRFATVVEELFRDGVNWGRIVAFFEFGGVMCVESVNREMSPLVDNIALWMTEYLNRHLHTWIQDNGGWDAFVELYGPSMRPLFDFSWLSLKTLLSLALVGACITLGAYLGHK
PROPERTY NAME: pKi

INSERT INTO measurements (smiles_record, property_name, value_qualifier, value) VALUES
  ('CSc1ccccc1CN1CCN(c2ccc(C(=O)NS(=O)(=O)c3ccc(N[C@H](CCN(C)C)CSc4ccccc4)c([N+](=O)[O-])c3)cc2)CC1', 'pKi', '>', 9.00),
  ('Cc1c(C(=O)O)c(-c2cccc(N3CCN(c4ccc(NS(=O)(=O)c5ccc(N[C@H](CCN6CCCCC6)CSc6ccccc6)c(S(=O)(=O)C(F)(F)F)c5)cc4)CC3)c2)c(-c2ccc(Cl)cc2)n1C', 'pKi', '=', 8.42),
  ('CN(C)CC[C@H](CSc1ccccc1)Nc1ccc(S(=O)(=O)NC(=O)c2ccc(N3CCN(Cc4ccccc4-c4ccc(F)cc4)CC3)cc2)cc1[N+](=O)[O-]', 'pKi', '>', 9.00),
  ('O=C(Nc1nc2ccccc2s1)c1cccc2c1CN(c1ccc(CCCOc3ccccc3)c(C(=O)O)n1)CC2', 'pKi', '=', 6.20),
  ('CN(C)CC[C@H](CSc1ccccc1)Nc1ccc(S(=O)(=O)NC(=O)c2ccc(N3CCC(=Cc4ccccc4Cl)CC3)cc2)cc1[N+](=O)[O-]', 'pKi', '=', 9.15),
  ('CC(C)Oc1ccc(C(=O)Nc2c(C(=O)O)nn(-c3ccc(Oc4ccccc4)cc3)c2-c2ccc(OC(C)C)cc2)cc1', 'pKi', '=', 6.85);

###

# merged literature set: Ki with Apoptosis regulator Bcl-2 (Homo sapiens)
Bucketed by reported Ki, buckets being low-valued: < 40 nM; mid-valued: ≥ 40 nM and < 900 nM; high-valued: ≥ 900 nM

INSERT INTO assay_data (molecule, class_assignment) VALUES
  ('Cc1c(C(=O)O)c(-c2cccc(N3CCN(c4ccc(NS(=O)(=O)c5ccc(N[C@H](CCN6CCC(C)(O)CC6)CSc6ccccc6)c(S(=O)(=O)C(F)(F)F)c5)cc4)CC3)c2)c(-c2ccc(Cl)cc2)n1C', 'low-valued'),
  ('O=C(NS(=O)(=O)c1ccccc1)[C@H](Cc1ccccc1)N1C(=O)N[C@@H](Cc2ccc(Br)cc2)C1=O', 'high-valued'),
  ('CN(C)CC[C@H](CSc1ccccc1)Nc1ccc(S(=O)(=O)NC(=O)c2ccc(N3CCN(Cc4ccccc4-c4ccc(Cl)cc4)CC3)cc2)cc1C(F)(F)F', 'low-valued'),
  ('O=C(Nc1ccc(C(=O)NS(=O)(=O)c2ccc(NCCSc3ccccc3)c([N+](=O)[O-])c2)cc1)c1ccc(F)cc1', 'high-valued'),
  ('Cc1ccc(N2C(=O)/C(=C/c3ccc(OCC(=O)Nc4ccc(C(=O)O)cc4)cc3)SC2=S)cc1', 'high-valued'),
  ('O=C(N[C@@H](Cc1ccc(OCc2ccccc2)cc1)C(=O)NS(=O)(=O)c1ccc(Cl)c([N+](=O)[O-])c1)c1cn(Cc2ccc(-c3ccccc3)cc2)c2ccccc12', 'high-valued'),
  ('CN(C)CC[C@H](CSc1ccccc1)Nc1ccc(S(=O)(=O)NC(=O)c2ccc(N3CCC(=Cc4ccccc4C#N)CC3)cc2)cc1[N+](=O)[O-]', 'low-valued'),
  ('O=C(NS(=O)(=O)c1ccc([N+](=O)[O-])cc1)[C@H](Cc1ccccc1)N1C(=O)/C(=C/c2ccc(-c3ccc([N+](=O)[O-])cc3)cc2)SC1=S', 'mid-valued'),
  ('CN(C)CCCC(O)(c1ccccc1)c1cccc(OCc2cccc(-c3ccc(C(=O)O)cc3)c2)c1 (configuration not stated)', 'high-valued'),
  ('COC1(CC(C)(C)C)CCN(c2ccc(C(=O)NS(=O)(=O)c3ccc(N[C@H](CCN(C)C)CSc4ccccc4)c([N+](=O)[O-])c3)cc2)CC1', 'low-valued'),
  ('O=C(NS(=O)(=O)c1ccccc1)[C@H](Cc1c[nH]c2ccccc12)N1C(=O)/C(=C/c2ccc(-c3ccccc3)cc2)SC1=S', 'mid-valued'),
  ('COC1(Cc2ccccc2C)CCN(c2ccc(C(=O)NS(=O)(=O)c3ccc(N[C@H](CCN(C)C)CSc4ccccc4)c([N+](=O)[O-])c3)cc2)CC1', 'low-valued'),
  ('O=C(O)c1ccc(/C=C2\SC(=S)N(c3ccccc3)C2=O)cc1', 'high-valued'),
  ('COC1(CC(C)C)CCN(c2ccc(C(=O)NS(=O)(=O)c3ccc(N[C@H](CCN(C)C)CSc4ccccc4)c([N+](=O)[O-])c3)cc2)CC1', 'mid-valued'),
  ('O=C(COc1ccc(/C=C2\SC(=S)N(c3ccccc3)C2=O)cc1)Nc1ccc(C(=O)O)cc1', 'high-valued'),
  ('Cc1cc(Oc2ccc(Cn3nc4ccc(Cl)cc4c3C(=O)NS(=O)(=O)c3ccc(NCc4cccnc4)c([N+](=O)[O-])c3)cc2)cc(C)c1Cl', 'high-valued'),
  ('CC(C)c1ccc2/c(=N\c3ccc(Oc4ccccc4)cc3)c3cc(O)c(O)c(O)c3n(C(=O)c3ccc(C(C)(C)C)cc3)c2c1', 'mid-valued'),
  ('O=C1c2ccccc2C(=O)c2c(O)cc(O)cc21', 'high-valued'),
  ('CO[C@H]1CC[C@H](CNc2ccc(S(=O)(=O)NC(=O)c3ccc(N4CCN(CC5=C(c6ccc(Cl)cc6)CC(C)(C)CC5)CC4)cc3Oc3cnc4[nH]ccc4c3)cc2[N+](=O)[O-])CC1', 'low-valued'),
  ('N#CC1=C(NCCC(=O)O)c2ccc(Sc3ccc(Br)cc3)c3cccc(c23)C1=O', 'high-valued'),
  ('CC(C)Oc1ccc(C(=O)Nc2c(C(=O)O)nn(-c3ccc(Oc4ccccc4)cc3)c2-c2ccc(OCc3ccccc3)cc2)cc1', 'high-valued'),
  ('O=C(NS(=O)(=O)c1ccc(Cl)c([N+](=O)[O-])c1)[C@H](Cc1ccccc1)N1C(=O)N[C@@H](Cc2ccc(-c3ccnc(F)c3)cc2)C1=O', 'high-valued'),
  ('COC1(Cc2cccc(Cl)c2)CCN(c2ccc(C(=O)NS(=O)(=O)c3ccc(N[C@H](CCN(C)C)CSc4ccccc4)c([N+](=O)[O-])c3)cc2)CC1', 'low-valued'),
  ('COc1ccc2c(c1)c(CC(=O)N[C@@H](Cc1ccccc1)C(=O)NS(=O)(=O)c1ccccc1)c(C)n2-c1ccc(-c2ccccc2)cc1', 'mid-valued'),
  ('O=C(O[C@H]1Cc2c(O)cc(O)cc2OC1c1cc(O)c(=O)c2c(O)c(O)cc([C@H]3Oc4cc(O)cc(O)c4C[C@H]3O)c2c1)c1cc(O)c(O)c(O)c1 (some centres not stated)', 'high-valued');

###

# merged literature set: log10 Ki with Apoptosis regulator Bcl-2 (Homo sapiens)
PROPERTY NAME: log10 Ki (log10 of the value in µM)

INSERT INTO results (smiles_record, value) VALUES
  ('O=C(O)c1ccc([N+](=O)[O-])c(COc2ccc(/C=C3\SC(=S)N(c4ccc([N+](=O)[O-])cc4)C3=O)cc2)c1', 0.49),
  ('COc1cc(CCCN(C)C)ccc1-c1ccc(C(=O)NS(=O)(=O)c2ccc(NCCSc3ccccc3)c([N+](=O)[O-])c2)cc1', 0.09),
  ('O=C(NS(=O)(=O)c1ccc(N[C@H](CCN2CCOCC2)CSc2ccccc2)c(S(=O)(=O)C(F)(F)F)c1)c1csc(N2CCc3cccc(C(=O)Nc4nc5ccccc5s4)c3C2)n1', -0.71),
  ('CN(C)C(=O)N1CCN(c2ccc(C(=O)NS(=O)(=O)c3ccc(NCCSc4ccccc4)c([N+](=O)[O-])c3)cc2)CC1', 0.55),
  ('COc1cccc(/C=C/C(=O)Nc2ccc(C(=O)NS(=O)(=O)c3ccc(NCCSc4ccccc4)c([N+](=O)[O-])c3)cc2)c1', 0.28),
  ('O=C([C@@H]1[C@@H](CO)[C@@H]2Cn3c(cccc3=O)[C@@H]2N1Cc1ccc(Oc2ccccc2)cc1)N1CCC(Cc2ccccc2)CC1', 0.72);

###

# merged literature set: Ki with Apoptosis regulator Bcl-2 (Homo sapiens)
PROPERTY NAME: Ki (nM)

INSERT INTO measurements (smiles_record, value_qualifier, value) VALUES
  ('Cc1cc(OCCCc2c3n(c4c(-c5c(C)nn(C)c5C)c(Cl)ccc24)CCCN(c2ccc(C(=O)O)c4ccn(C)c24)C3=O)cc(C)c1Cl', '=', 440),
  ('O=C(O)[C@H](Cc1ccccc1)N1C(=O)N[C@@H](Cc2ccccc2)C1=O', '>', 50000),
  ('CN(C)CC[C@H](CSc1ccccc1)Nc1ccc(S(=O)(=O)NC(=O)c2ccc(N3CCC(C)(C)CC3)cc2)cc1[N+](=O)[O-]', '=', 62),
  ('O=C(NS(=O)(=O)c1ccc(Cl)c([N+](=O)[O-])c1)[C@H](Cc1ccc(Br)cc1)N1C(=O)/C(=C/c2ccc(-c3ccc([N+](=O)[O-])cc3)cc2)SC1=S', '>', 50000),
  ('COc1cc(CCN(C)C)ccc1-c1ccc(C(=O)NS(=O)(=O)c2ccc(NCCSc3ccccc3)c([N+](=O)[O-])c2)cc1', '=', 3260),
  ('COc1ccc2c(c1)c(CC(=O)NS(=O)(=O)c1ccc(NCCSc3ccccc3)c([N+](=O)[O-])c1)c(C)n2-c1ccc(-c2ccccc2)cc1', '>', 10000),
  ('O=C([C@@H]1[C@@H](CO)[C@@H]2Cn3c(cccc3=O)[C@@H]2N1Cc1ccc(Oc2ccccc2)cc1)N1CCC(c2ccc(F)cc2)CC1', '=', 6800),
  ('CN(C)CC[C@H](CSc1ccccc1)Nc1ccc(S(=O)(=O)NC(=O)c2ccc(N3CCN(CC4=C(c5ccc(Cl)cc5)CCC(C)(C)C4)CC3)cc2)cc1[N+](=O)[O-]', '<', 1),
  ('COC(=O)c1ccc(-c2ccc(/C=C3\SC(=S)N([C@@H](Cc4ccc(Br)cc4)C(=O)NS(=O)(=O)c4ccccc4)C3=O)cc2)cc1', '=', 460),
  ('O=C(NCCCN1CCCC1)[C@@H]1[C@@H](CO)[C@@H]2Cn3c(cccc3=O)[C@H]1N2c1nc(-c2ccc(Cl)cc2)c(-c2ccccc2)s1', '=', 3000),
  ('Cc1cc(OCCCn2ccc3cc(OCc4cccc(C(=O)O)c4)ccc32)cc(C)c1Cl', '=', 410),
  ('O=C(O)c1ccc(COc2cccc(/C=C3\SC(=S)N(c4ccccc4)C3=O)c2)cc1', '>', 10000),
  ('O=C(NS(=O)(=O)c1ccccc1)[C@H](Cc1ccccc1)N1C(=O)/C(=C/c2ccc(-c3ccc([N+](=O)[O-])cc3)cc2)SC1=S', '=', 460),
  ('O=C(NS(=O)(=O)c1ccccc1)[C@H](Cc1ccccc1)N1C(=O)N[C@@H](Cc2ccccc2)C1=O', '>', 50000),
  ('N#CC1=C(C#N)c2ccc(Sc3ccc(Br)cc3)c3cccc(c23)C1=O', '=', 850),
  ('O=C(Nc1ccc(C(=O)NS(=O)(=O)c2ccc(NCCSc3ccccc3)c([N+](=O)[O-])c2)cc1)c1ccccc1', '=', 1700),
  ('Cc1ccc(-c2ccc(O[C@H]3C[C@@H](C(=O)N[C@@H](Cc4ccc(Br)cc4)C(=O)NS(=O)(=O)c4ccc(Cl)c([N+](=O)[O-])c4)N(C(=O)OC(C)(C)C)C3)cc2)cc1', '=', 550),
  ('O=c1c(O)cc([C@H]2Oc3cc(O)cc(O)c3C[C@H]2O)cc2c([C@H]3Oc4cc(O)cc(O)c4C[C@H]3O)cc(O)c(O)c12', '=', 692),
  ('CCc1sc2ncnc(N[C@H](C(=O)O)c3ccccc3)c2c1-c1cccc(O)c1', '=', 269000),
  ('CN(C)CC[C@H](CSc1ccccc1)Nc1ccc(S(=O)(=O)NC(=O)c2ccc(N3CCC(=Cc4ccc(C(F)(F)F)cc4)CC3)cc2)cc1[N+](=O)[O-]', '=', 9.4),
  ('Cc1cc(OCCCc2c3n(c4c(-c5c(C)nn(C)c5C)c(Cl)ccc24)CCCN(c2cn(C)c4cc(C(=O)O)ccc24)C3=O)cc(C)c1Cl', '=', 530),
  ('COc1ccc2c(c1)c(CC(=O)NS(=O)(=O)c1ccc(N3CCOCC3)c([N+](=O)[O-])c1)c(C)n2-c1ccc(-c2ccccc2)cc1', '>', 10000),
  ('O=C(Nc1ccc(S(=O)(=O)c2ccccc2)cc1)c1cc(Cc2ccccc2)c(O)c(O)c1O', '=', 930),
  ('CC(C)(C)OC(=O)N1C[C@@H](Oc2ccc(-c3ccccc3)cc2)C[C@H]1C(=O)N[C@@H](Cc1ccc(Br)cc1)C(=O)NS(=O)(=O)c1ccc(Cl)c([N+](=O)[O-])c1', '=', 930);
